Biological target: Cytochrome P450 3A4 (Homo sapiens) (UniProt P08684)
Sequence (P08684 whole entry, looked up): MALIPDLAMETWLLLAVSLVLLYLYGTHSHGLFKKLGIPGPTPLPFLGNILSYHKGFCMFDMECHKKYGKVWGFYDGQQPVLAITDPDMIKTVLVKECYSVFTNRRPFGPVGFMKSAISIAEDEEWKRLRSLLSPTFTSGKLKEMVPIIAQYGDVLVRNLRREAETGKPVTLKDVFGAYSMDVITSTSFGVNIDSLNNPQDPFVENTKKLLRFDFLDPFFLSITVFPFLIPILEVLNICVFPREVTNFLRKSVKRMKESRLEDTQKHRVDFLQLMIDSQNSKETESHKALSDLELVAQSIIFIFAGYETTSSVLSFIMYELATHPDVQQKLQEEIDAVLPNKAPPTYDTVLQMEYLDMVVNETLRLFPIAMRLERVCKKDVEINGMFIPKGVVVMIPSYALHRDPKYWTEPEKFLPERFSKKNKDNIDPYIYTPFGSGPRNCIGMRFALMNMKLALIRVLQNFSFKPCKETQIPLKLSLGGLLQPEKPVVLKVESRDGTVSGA
Assay: qHTS Assay for Activators of Cytochrome P450 3A4 (AID 885); also: nearly all actives have a fitted effect of over 65% in size
Details: recombinant CYP3A4, Luciferin-PPXE luminescence, 60 min; series mostly up to 57.1 µM
Procedure: NIH Molecular Libraries Screening Centers Network [MLSCN] NIH Chemical Genomics Center [NCGC] The P450 gene superfamily is involved in the metabolism and clearance of xenobiotics. […] The luciferin is then measured by luminescence after the addition of a luciferase detection reagent. […] Inhibitors and some substrates limit the production of luciferin, and decrease measured luminescence; activators increase the production of luciferin and luminescence. […]
Activity calls are given as the source filed them. Calls follow the shape of the dose curve; as a rule, active = well fitted activation curve with a large enough effect; inconclusive = small, poorly fitted or top-dose-only effect; inactive = no such curve, though single readings can be large or run the other way.
assay-metric: outcome

Would you please look over these solved cases?
[
  {
    "molecule": "CC1=C(/C=C/C(C)=C/C=C/C(C)=C/CO)C(C)(C)CCC1",
    "assay-metric": "outcome",
    "result": "inactive"
  },
  {
    "molecule": "CC(Cc1ccc(O)c(O)c1)C(C)Cc1ccc(O)c(O)c1 (stereo not given)",
    "assay-metric": "outcome",
    "result": "inactive"
  },
  {
    "molecule": "C[C@@H]1CCC2[C@@H](C)[C@@H](O)O[C@@H]3O[C@@]4(C)CC[C@@H]1[C@@]23OO4 (stereo not given in full)",
    "assay-metric": "outcome",
    "result": "inactive"
  },
  {
    "molecule": "CCCCC/C=C\\C/C=C\\CCCCCCCC(=O)O",
    "assay-metric": "outcome",
    "result": "inactive"
  }
]

Request: Give the value of outcome reported for the following: COc1ccc(CCNC[C@H](O)c2ccc(O)cc2)cc1OC
Result: inactive

###

test system: TAB165; test: qHTS profiling for inhibitors of Plasmodium falciparum proliferation (AID 504749); also: nearly all actives have a fitted effect of over 60% in size; conditions: P. falciparum in erythrocytes, SYBR Green DNA, 72 h; series mostly up to 28.7 µM
Records with an inconclusive call do not appear. Active and inactive are the calls of the source. The call rests on the fitted dose curve; in most records, active means well fitted inhibition curve with a large enough effect; inconclusive means small, poorly fitted or top-dose-only effect; inactive means flat fitted curve, though single readings scatter.
Please state which outcome applies, choosing from True = active, False = inactive

Study these solved cases before continuing.
[
  {
    "smiles-text": "C[C@]12CCC(=O)C=C1CC[C@@H]1[C@@H]2[C@@H](O)C[C@@]2(C)[C@H]1CC[C@]2(O)C(=O)COP(=O)(O)O",
    "tgt": "TAB165",
    "classification": "False"
  },
  {
    "smiles-text": "COc1ccc2c3c1O[C@H]1C[C@@H](O)C=C[C@@]31CCN(C)C2",
    "tgt": "TAB165",
    "classification": "False"
  },
  {
    "smiles-text": "CC1(C)S[C@@H]2[C@H](NC(=O)[C@@H](NC(=O)N3CCNC3=O)c3ccccc3)C(=O)N2[C@H]1C(=O)O",
    "tgt": "TAB165",
    "classification": "False"
  },
  {
    "smiles-text": "C=CCSSSCC=C",
    "tgt": "TAB165",
    "classification": "False"
  }
]

We next turn to a different compound, shown below.
Request: Look up the recorded call for O=C(Nc1cccc(C(F)(F)F)c1)c1cc(Br)cc(Br)c1O in this test.
Result: True

###

test system: PC26; assay: qHTS profiling for inhibitors of Plasmodium falciparum proliferation (AID 504749); also: nearly all actives have a fitted effect of over 60% in size; conditions: P. falciparum in erythrocytes, SYBR Green DNA, 72 h; series mostly up to 28.7 µM
Inconclusive results are not listed. The source made the active and inactive calls. Calls come from the whole dose curve; as a rule, active = well fitted inhibition curve with a large enough effect; inconclusive = small, poorly fitted or top-dose-only effect; inactive = flat fitted curve, though single readings scatter.
Outcomes you can answer with include only these: active, inactive

[
  {
    "molecule": "CC(C(=O)O)c1ccc(N2Cc3ccccc3C2=O)cc1 (stereo not given)",
    "tgt": "PC26",
    "classification": "inactive"
  },
  {
    "molecule": "COC(C(=O)C(O)C(C)O)C1Cc2cc3cc(OC4CC(OC5CC(O)C(O)C(C)O5)C(O)C(C)O4)c(C)c(O)c3c(O)c2C(=O)C1OC1CC(OC2CC(OC3CC(C)(O)C(O)C(C)O3)C(O)C(C)O2)C(O)C(C)O1 (stereo not given)",
    "tgt": "PC26",
    "classification": "active"
  },
  {
    "molecule": "CC(C)=O",
    "tgt": "PC26",
    "classification": "inactive"
  }
]

Request: Called result for NC1C2CN(c3nc4c(cc3F)c(=O)c(C(=O)O)cn4-c3ccc(F)cc3F)CC12 (stereo not given)
Result: inactive

Request: Per the assay record, what outcome was assigned to CCCCC(C)(O)C/C=C/[C@H]1[C@H](O)CC(=O)[C@@H]1CCCCCCC(=O)OC (stereo not given in full) ?
Result: inactive

###

Here, each record is paired with measured max response data.
Tested on: KB-3-1
Test: Cytotoxic Profiling of Annotated Libraries Using Quantitative High-Throughput Screening (AID 1296008); also: % is scaled to controls: 0 for no effect and ±100 for the full control effect; nearly all actives have a fitted effect of over 60% in size
Settings: Five cell lines viability, CellTiter-Glo ATP luminescence, 48-72 h; stronger effect = lower value
Description: Cell-based phenotypic screening is a commonly used approach to discover biological pathways, novel drug targets, chemical probes and high-quality hit-to-lead molecules. […] A pintool (Kalypsys) was used to transfer 23 nL of compound solution to the 1536-well assay plates. […] Plates were left at room temperature for 10 min before imaging the ATP-coupled luminescence using a ViewLux microplate imager (PerkinElmer, Waltham, MA).
Inconclusive results are not listed. Where a SMILES comes first, the peptide text is derived from it. Bridges are numbered along the chain shown (N, C = ends). [ ]: non-standard residue; d: D form. The star is where a group is joined. X1 = CCC(C)C(N)C1=NC(C(=O)*)CS1; dOrn = NCCC[C@@H](N)C(=O)O
Give the value, in units of %, as a plain number.

Would you please look over these solved cases?
[
  {
    "molecule": "O=C1[C@H](O[C@@H]2O[C@H](CO)[C@@H](O)[C@H](O)[C@H]2O)Oc2ccccc2N1O",
    "max response / %": 3.12
  },
  {
    "molecule": "CN1CC[C@@H](NC(=O)Nc2ccc(C#N)cc2)C[C@@H]1c1nc2ccccc2[nH]1",
    "max response / %": -8.77
  },
  {
    "molecule": "CC1OC(OC2C(C)OC(OC3C(OC(=O)/C=C/c4ccc(O)cc4)C(CO)OC(OC4(COC(=O)/C=C/c5ccc(O)cc5)OC(CO)C(O)C4O)C3OC3OCC(O)(CO)C3O)C(O)C2O)C(O)C(O)C1O (configuration not stated)",
    "max response / %": 4.29
  },
  {
    "molecule": "CCC(C)C(N)C1=NC(C(=O)N[C@@H](CC(C)C)C(=O)N[C@H](CCC(=O)O)C(=O)N[C@H](C(=O)N[C@H]2CCCCNC(=O)[C@H](CC(N)=O)NC(=O)[C@@H](CC(=O)O)NC(=O)[C@H](Cc3cnc[nH]3)NC(=O)[C@@H](Cc3ccccc3)NC(=O)[C@H]([C@@H](C)CC)NC(=O)[C@@H](CCCN)NC2=O)[C@@H](C)CC)CS1 (some centres not stated) (X1-L[dE]IK[dOrn]I[dF]H[dD]N; lactam 4-C)",
    "max response / %": 8.49
  },
  {
    "molecule": "CC1CCC2C(C)(C)C(O)CCC2(C)C12Cc1c(O)cc3c(c1O2)CN=C3N (configuration not stated)",
    "max response / %": 2.69
  },
  {
    "molecule": "CCCCNC(=O)[C@@H]1Cc2ccccc2N1C(=O)[C@@H](N)CC",
    "max response / %": 6.18
  },
  {
    "molecule": "CC(C)C1(O[C@@H]2O[C@H](CO)[C@@H](O)[C@H](O)[C@H]2O)CC=C(CO)CC1 (some centres not stated)",
    "max response / %": -0.585
  },
  {
    "molecule": "CCS(=O)(=O)N1CCC([C@@H](C)n2c(C)c(C(=O)NCc3c(OC)cc(C)[nH]c3=O)c3ccccc32)CC1",
    "max response / %": 9.76
  },
  {
    "molecule": "CC(=O)Oc1cc(C)c(OC(C)=O)c2ccccc12",
    "max response / %": 4.15
  },
  {
    "molecule": "COc1c2c(c(C)c3c1C(=O)OC3)OC1(C)CC(O)C3(O)C(C)(C)OC(=O)CCC3(C)C1C2 (configuration not stated)",
    "max response / %": 8.81
  }
]

Request: Give the reported value of max response for this record: CC1=CCC(C(C)(C)O)CC1 (configuration not stated)
Result: 6.57

Request: Tell me measured max response for CC(=O)N1CCN(NC(=O)c2ccc(F)cc2)CC1 please.
Result: 8.34

Request: Specify max response for C[C@H]1[C@H](C)CC[C@]2(C(=O)O[C@@H]3O[C@H](CO)[C@@H](O)[C@H](O)[C@H]3O)CC[C@]3(C(=O)O)C(=CCC4[C@@]5(C)CC[C@H](O[C@@H]6O[C@H](CO)[C@@H](O)[C@H](O)[C@H]6O)C(C)(C)C5CC[C@]43C)[C@H]12 (some centres not stated) and stop.
Result: 2.34

Request: Quickly give me recorded max response for CC1=CC(=O)C[C@H]2[C@@H]1CC[C@@H](C)[C@]21CO[C@H](c2ccoc2)C1=O
Result: -0.71

Request: Consider the molecule O=C(c1ccc(F)cc1)C1CCN(CCn2c(=O)nc3n(c2=O)CCCC3)CC1 . State its measured max response.
Result: -0.742

Request: Give recorded max response. NC(Cc1c[nH]c2ccccc12)C(=O)NC(CCC(=O)O)C(=O)O (configuration not stated)
Result: 5.6

Request: Identify the reported max response for the following entry. CCCC(=O)Nc1ncnc2c1ncn2[C@@H]1O[C@@H]2COP(=O)(O)O[C@H]2[C@H]1OC(=O)CCC
Result: -5.3
